Target: SHP-2 enzyme (Met1-Leu525) (Homo sapiens)
Construct: synthetized by Origene, Met1-Leu525, cat #TP750155
Sequence (Q06124 1-525): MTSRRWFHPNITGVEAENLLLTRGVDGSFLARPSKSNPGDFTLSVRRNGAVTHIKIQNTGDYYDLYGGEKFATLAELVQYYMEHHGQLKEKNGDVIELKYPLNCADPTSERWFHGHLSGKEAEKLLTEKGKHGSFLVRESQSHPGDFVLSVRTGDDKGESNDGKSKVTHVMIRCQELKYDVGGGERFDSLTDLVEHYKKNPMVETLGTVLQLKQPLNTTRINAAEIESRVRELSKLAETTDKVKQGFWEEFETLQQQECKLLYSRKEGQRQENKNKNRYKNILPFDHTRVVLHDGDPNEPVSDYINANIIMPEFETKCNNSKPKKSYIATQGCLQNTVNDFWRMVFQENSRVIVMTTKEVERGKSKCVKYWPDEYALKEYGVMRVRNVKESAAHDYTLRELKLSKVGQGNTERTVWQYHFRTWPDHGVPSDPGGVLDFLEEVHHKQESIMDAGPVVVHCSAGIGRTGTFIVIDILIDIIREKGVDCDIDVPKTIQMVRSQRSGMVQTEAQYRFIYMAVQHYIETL
Assay: SHP2 inhibition enzymatic assay (DiFMUP substrate, IRS1 peptide activation)
Details: SHP2 wt; activated by 500 nM IRS1 peptide; 75 μM DiFMUP substrate
Recorded IC50 by entry

Check out these entries, answers already filled in.
Compound	Target Desc	Readout Name	Result
CC(N)C1CN(c2nc3nc(Sc4cccnc4C(F)(F)F)cnc3[nH]2)CCO1 (centres unmarked)	SHP-2 enzyme (Met1-Leu525) (Homo sapiens)	IC50	0.5 to 3 µM
CC1(N)CCN(c2nc3nc(Sc4ccnc(Br)c4)cnc3[nH]2)CC1	SHP-2 enzyme (Met1-Leu525) (Homo sapiens)	IC50	0.5 to 3 µM
CC(C)=Cc1ccccc1Sc1cnc2[nH]c(N3CCC(C)(N)CC3)nc2n1	SHP-2 enzyme (Met1-Leu525) (Homo sapiens)	IC50	> 3 µM
NCC1CCN(c2nc3nc(Sc4cccnc4C(F)(F)F)cnc3[nH]2)CC1	SHP-2 enzyme (Met1-Leu525) (Homo sapiens)	IC50	0.5 to 3 µM

Next:
Param item = FC(F)(F)c1ncccc1Sc1cnc2[nH]c(NCC3COCCN3)nc2n1 (centres unmarked) ; retrieve measured IC50.
> 3 µM
